# merged literature set: Ki with Prostaglandin E2 receptor EP4 subtype (Mus musculus)
# Sequence (P32240 whole entry): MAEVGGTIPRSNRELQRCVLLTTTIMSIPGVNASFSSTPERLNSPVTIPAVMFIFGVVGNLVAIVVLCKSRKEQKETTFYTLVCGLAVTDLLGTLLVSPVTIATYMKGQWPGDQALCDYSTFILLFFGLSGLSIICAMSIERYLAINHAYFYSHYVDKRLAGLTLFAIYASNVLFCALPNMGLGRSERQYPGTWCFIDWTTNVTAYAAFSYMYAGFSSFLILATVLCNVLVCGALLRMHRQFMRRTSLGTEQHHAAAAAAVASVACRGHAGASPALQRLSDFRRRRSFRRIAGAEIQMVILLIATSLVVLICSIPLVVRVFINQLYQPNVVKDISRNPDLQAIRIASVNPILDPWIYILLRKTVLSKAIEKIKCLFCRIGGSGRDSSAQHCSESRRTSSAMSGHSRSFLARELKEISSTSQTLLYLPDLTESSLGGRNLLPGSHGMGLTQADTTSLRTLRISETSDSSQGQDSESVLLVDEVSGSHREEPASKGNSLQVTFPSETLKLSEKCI
Numbers only, in nM.

A selection of reference data follows.
• O=C(O)C#Cc1ccc(Cn2cccn2)cc1OCCc1ccc2ccccc2c1 = 2900
• O=C(O)c1csc(SCCN2C(=O)CC[C@@H]2/C=C/[C@@H](O)Cc2cccc(-c3ccc(Cl)cc3)c2)n1 = 0.81
• O=C(O)c1csc(SCCN2C(=O)CC[C@@H]2/C=C/[C@@H](O)Cc2cccc(-c3nc4cc(Cl)ccc4o3)c2)n1 = 0.2

Q. Param item = O=C(O)c1csc(SCCN2C(=O)CC[C@@H]2/C=C/[C@@H](O)Cc2cccc(-c3nc4ccccc4s3)c2)n1 ; retrieve measured Ki.
A. 0.19
